Cited source for all entries: patent US20110150914A1

target: H-2 K^b (mouse; human), P61769
pIC50: −log10 of the molar value.
Parameter threshold = 6. Response is t when pIC50 meets or exceeds it, else f.

Given TAIANQATV (modifications not checked) [NS4B66-74] , state whether its pIC50 is at least 6.
f

Do the same for YSQVNPITL (modifications not checked) [NS4B99-107] please
f

Do the same for RALIFILL (modifications not checked) [M60-67] please
t

Do the same for VAVSFVTLI (modifications not checked) [NS2A36-44] please
t

Do the same for LAVTIMAIL (modifications not checked) [NS2A145-153] please
f

Do the same for RMLINRFTM (modifications not checked) [NS5237-45] please
f

Do the same for VSWTMKIL (modifications not checked) [E451-458] please
t

Do the same for VAFLRFLTI (modifications not checked) [C51-59] please
t
